B1: C22orf15 (parent)
chain: ITQSWQVSVRVQPRGRAHLLPNPY

Variants of: B1
testSummary: protein stability index of a GFP-peptide fusion (GPS, HEK-293T) (PSI 1-6); higher = more stable;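 note: lentivirally expressed fusions sorted by FACS into six bins by GFP to DsRed ratio, PSI derived from sequencing read proportions per bin multiplied by bin number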
runParameters: c terminus: a fixed tail appended
outcomeMeasure: protein stability index

{"mutationString": "P13N", "numericReadout": 1.74}
{"mutationString": "R10F", "numericReadout": 2.62}
{"mutationString": "L19P", "numericReadout": 1.78}
{"mutationString": "A17Q", "numericReadout": 1.68}
{"mutationString": "L20S", "numericReadout": 1.03}
{"mutationString": "P21N", "numericReadout": 1.68}
{"mutationString": "R16S", "numericReadout": 2.21}
{"mutationString": "W5T", "numericReadout": 1.48}
{"mutationString": "T2P", "numericReadout": 2.43}
{"mutationString": "R14L", "numericReadout": 2.15}
{"mutationString": "R10S", "numericReadout": 1.98}
{"mutationString": "W5I", "numericReadout": 4.28}
{"mutationString": "Q3E", "numericReadout": 1.07}
{"mutationString": "Q3A", "numericReadout": 3.08}
{"mutationString": "W5D", "numericReadout": 2.32}
{"mutationString": "R10Y", "numericReadout": 2.12}
{"mutationString": "L19H", "numericReadout": 1.92}
{"mutationString": "S8G", "numericReadout": 2.39}
{"mutationString": "R14D", "numericReadout": 1.87}
{"mutationString": "I1N", "numericReadout": 2.24}
{"mutationString": "Q12A", "numericReadout": 1.16}
{"mutationString": "W5S", "numericReadout": 2.69}
{"mutationString": "V7C", "numericReadout": 1.6}
{"mutationString": "A17L", "numericReadout": 2.42}
{"mutationString": "N22Y", "numericReadout": 2.09}
{"mutationString": "V11A", "numericReadout": 2.07}
{"mutationString": "V7S", "numericReadout": 2.12}
{"mutationString": "V11S", "numericReadout": 1.95}
{"mutationString": "R14Y", "numericReadout": 1.85}
{"mutationString": "R14F", "numericReadout": 1.78}
{"mutationString": "N22V", "numericReadout": 1.75}
{"mutationString": "L19S", "numericReadout": 2.1}
{"mutationString": "R10D", "numericReadout": 2.05}

The values you see were collected from the supplement of paper PMC10567573.
